Target: NADPH oxidase 2 (Homo sapiens)
Assay: NOX2-dependent H2O2 signal modulators, primary screen, NOX inhibitor project, cell-based, HEK293-NOX2, PMA-stimulated, Amplex Red fluorescence (AID 1159); further: test concentration not given here
Details: 45 min, higher = more signal, called active from +8 up or from −8 down
The following compounds are listed with their measured z-score values.
assay readout: z-score

{"chemical structure": "[N-]=[N+]=Nc1ccccc1C[C@@]1(C(=O)N2CCOCC2)N=C(c2ccc(OCCCO)cc2)O[C@@H]1c1ccccc1N=[N+]=[N-]", "assay readout": "z-score", "reported": 0.781}
{"chemical structure": "Cc1ccc(S[C@]2(C(=O)NC(C)C)CC(=O)N(C3Cc4ccccc4C3)[C@@H]2c2ccc(CO)cc2)cc1", "assay readout": "z-score", "reported": 0.0257}
{"chemical structure": "[N-]=[N+]=NCc1ccccc1C[C@@]1(C(=O)N2CCOCC2)N=C(c2ccc(OCCCO)cc2)O[C@@H]1c1ccccc1N=[N+]=[N-]", "assay readout": "z-score", "reported": -1.49}
{"chemical structure": "Cc1ccc([C@@H]2CC=C(C(=O)O)[C@H](c3ccccc3)N2S(=O)(=O)c2ccc(C)cc2)cc1", "assay readout": "z-score", "reported": 0.489}

====

Assay: adipocyte viability effects, profiling panel, cell-based, 3T3-L1 adipocytes, calcein-AM fluorescence, 48 h, basal (AID 1163); further: test concentration not given here
Conditions: 3T3-L1 adipocytes viability, higher = more signal

{"compound": "Cc1cc(C)c(C(O)C2C=CC3C(=O)N(C)C(=O)C3N2N2CCCCC2)c(C)c1 (stereo not drawn)", "z-score": -0.878}
{"compound": "C=CCOC(=O)[C@@H]1[C@H]2C(=O)O[C@H](c3ccccc3)[C@H](c3ccccc3)N2[C@H](c2ccc(OCCOC(=O)[C@H]3C[C@H]4C(=O)N5CCC[C@H]5C(=O)N4[C@H]3c3ccc(O)cc3)cc2)[C@@]12C(=O)Nc1ccccc12", "z-score": 1.25}
{"compound": "C#CCCCON=C1C[C@@H](O)[C@@H](O)[C@@H]2[C@@H]3C(=O)N(Cc4ccc5c(c4)OCO5)C(=O)[C@@H]3CC[C@H]12", "z-score": -0.027}
{"compound": "CCN1C(C)=C(C(=O)OC)[C@@H](c2ccccc2)N2C(=O)[C@](O)(C(=O)OC)[C@@H](c3ccccc3)C(C(=O)c3ccccc3)=C12", "z-score": 0.439}
{"compound": "C=CC(=O)O[C@@H](Cc1ccccc1)[C@H]1C2C=CCCC=C2CN1Cc1cccc(Cl)c1 (stereo partly drawn)", "z-score": 0.392}
{"compound": "COc1ccc(CCN2C(=O)[C@@]3(c4ccc([N+](=O)[O-])cc4)CC(=O)N(CC45CC6CC(CC(C6)C4)C5)[C@@H]3c3ccc(CO)cc32)cc1", "z-score": 0.0861}
{"compound": "CCOC(=O)C[C@H]1[C@H](OC(=O)c2ccccc2-c2ccccc2)[C@@H](NC(=O)c2ccc(-c3ccccc3)cc2)c2cc(OCCCO)ccc2N1C(=O)Cc1ccc(OC)cc1", "z-score": -0.367}
{"compound": "C=CCC(OC(C)=O)[C@@H]1[C@@H](N(Cc2cccc3ccccc23)C(=O)Cc2ccc(F)cc2)c2cc(OCCCO)ccc2N1C(=O)Cc1ccc2ccccc2c1 (stereo partly drawn)", "z-score": -0.399}
{"compound": "COCCOC(=O)N1C(=O)[C@@]2(c3cc(C#CCNC(N)=O)ccc31)[C@H](c1ccc(OCCO)cc1)N1[C@H](c3ccccc3)[C@H](c3ccccc3)OC(=O)[C@H]1[C@@H]2C(=O)Nc1nc2ccccc2s1", "z-score": 1.49}
{"compound": "COC(=O)C[C@H]1O[C@]2(C(=O)N(C)c3ccccc32)[C@@H](C)[C@@H]1[Si](C)(C)c1ccc(OC)cc1", "z-score": 2.54}
{"compound": "COc1cc(CO)cc(I)c1O[C@H]1C=C(C(=O)NCCO)C[C@@H](N(CC2CCCCC2)C(=O)c2cc3ccccc3oc2=O)[C@@H]1O", "z-score": -0.5}
{"compound": "O=C1O[C@@H](c2ccccc2)[C@@H](c2ccccc2)N2[C@@H](c3ccc(OCCO)cc3)[C@]3(C(=O)Nc4ccc(C#CCCO)cc43)[C@@H](C(=O)N3CCN(c4ncccn4)CC3)[C@H]12", "z-score": 0.38}
{"compound": "O=C1C[C@@](C(=O)NC2CC2)(c2ccc([N+](=O)[O-])cc2)[C@@H](c2ccc(CO)cc2I)N1CC12CC3CC(CC(C3)C1)C2", "z-score": -0.375}

====

Molecular target: Torsin-1A (Homo sapiens) (UniProt O14656)
Sequence (O14656 whole entry, looked up): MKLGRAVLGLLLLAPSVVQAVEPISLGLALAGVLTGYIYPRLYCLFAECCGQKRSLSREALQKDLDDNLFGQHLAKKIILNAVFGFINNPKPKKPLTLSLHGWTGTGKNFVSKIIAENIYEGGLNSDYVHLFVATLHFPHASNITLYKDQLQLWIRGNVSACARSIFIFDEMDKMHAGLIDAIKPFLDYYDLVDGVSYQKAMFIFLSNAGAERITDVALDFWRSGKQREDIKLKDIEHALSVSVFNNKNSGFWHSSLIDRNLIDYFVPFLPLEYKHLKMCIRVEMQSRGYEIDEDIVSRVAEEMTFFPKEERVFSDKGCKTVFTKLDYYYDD
Test: torsin A binders from cell lysate, primary screen, small-molecule microarray, wild-type, 635/667 nm (AID 1149)
Conditions: COS7 hTOR1A-WT lysate, 635 nm fluorescence, higher = more signal
The following compounds are listed with their measured composite z-score values.

{"compound": "CCOC(=O)[C@H]1C/C=C/C[C@H](C(=O)OCC)C(=O)O[C@H]2[C@@H](OC)O[C@H](CO)[C@@H](OC(=O)Nc3ccc(Br)cc3)[C@@H]2OC1=O", "composite z-score": 0.164}
{"compound": "O=C1O[C@@H](c2ccccc2)[C@@H](c2ccccc2)N2[C@@H](c3ccc(O)cc3)[C@]3(C(=O)Nc4ccc(C#CC5(O)CCCCCC5)cc43)[C@@H](C(=O)Nc3nc4ccccc4s3)[C@H]12", "composite z-score": 0.752}
{"compound": "CO[C@H]1O[C@H](CO)[C@@H](OC(=O)Nc2ccccc2)[C@H](OC(=O)Nc2ccc3c(c2)OCO3)[C@@H]1OC(=O)Nc1ccc2c(c1)OCO2", "composite z-score": 0.433}
{"compound": "CCOC(=O)C[C@H]1[C@H](OC(=O)c2ccccc2-c2ccccc2)[C@@H](NC(=O)C2CCCCC2)c2cc(OCCCO)ccc2N1C(=O)c1ccccc1", "composite z-score": 0.128}
{"compound": "Cc1ccc(S[C@]2(C(=O)NCCN3CCOCC3)CC(=O)N(C3Cc4ccccc4C3)[C@@H]2c2ccc(CO)cc2I)cc1", "composite z-score": -0.434}
{"compound": "Cc1ccc([C@@H]2CC=C(C(=O)O)[C@H](c3ccccc3)N2S(=O)(=O)c2ccc(C)cc2)cc1", "composite z-score": 0.385}
{"compound": "C=CCC(OC(C)=O)[C@@H]1[C@@H](N(Cc2ccc(-c3ccccc3)cc2)C(=O)c2ccc(-c3ccccc3)cc2)c2cc(OCCCO)ccc2N1C(=O)Cc1ccc(OC)cc1 (stereo not given in full)", "composite z-score": -0.096}
{"compound": "C=C(COC)C(=O)CC[C@H](OC(=O)c1ccccc1-c1ccccc1C(=O)O)c1cccc(OCCO)c1", "composite z-score": 2.33}
{"compound": "O=C1O[C@H](c2ccccc2)[C@H](c2ccccc2)N2[C@H]1[C@@H](C(=O)NC[C@H](O)c1ccccc1)[C@]1(C(=O)Nc3ccc(C#CC4=CCCCC4)cc31)[C@H]2c1ccc(OCCO)cc1", "composite z-score": 0.257}
{"compound": "CCCC/C=C/[C@H]([C@@H](O)Cc1ccccc1)N(CC#Cc1ccccc1)Cc1ccccc1Br", "composite z-score": -0.335}
{"compound": "O=C1c2ccccc2[C@@]2(Cc3ccccc3N(CC(F)(F)F)C2=O)[C@H](c2ccc(CO)cc2)N1C1CCCCC1", "composite z-score": 0.17}
{"compound": "Cc1ccc(S(=O)(=O)N[C@H]2COC(=O)CC=C[C@H](C)COC(=O)N[C@@H](C)C(=O)CC=C[C@@H]2C)cc1", "composite z-score": 0.771}
{"compound": "CO[C@@H]1COC(=O)CC=C[C@@H](C)[C@H](OC)COC(=O)CC=C[C@H]1C", "composite z-score": 0.685}
{"compound": "CCC#CCN(Cc1ccccc1Br)[C@H](/C=C/c1ccccc1)[C@@H](O)Cc1ccccc1", "composite z-score": -0.586}
{"compound": "C=CC[C@]1(C(=O)O)N=C(c2ccc(OCCCO)cc2)O[C@H]1c1ccccc1N=[N+]=[N-]", "composite z-score": 0.0545}
{"compound": "C[C@H]1COC(=O)[C@H](Cc2ccccc2)NC(=O)[C@@H](C)COC(=O)[C@H](Cc2ccccc2)NC1=O", "composite z-score": 1.18}
{"compound": "COC(=O)C1=CC(c2ccc(CO)cc2)=CC(C2CC2)N(Cc2sc3ccccc3c2Cl)C=C1C(=O)OC (stereo not given)", "composite z-score": 0.454}
{"compound": "[N-]=[N+]=NCc1ccccc1C[C@]1(C(N)=O)N=C(c2ccc(OCCCO)cc2)O[C@H]1c1ccccc1CN=[N+]=[N-]", "composite z-score": 0.105}
{"compound": "COc1ccc(-c2cc3c(c(-c4ccccc4)n2)[Si](C(C)C)(C(C)C)O[C@H]3c2ccccc2)cn1", "composite z-score": 0.363}
{"compound": "COc1ccc(NN2C(C(O)c3cc(OC)c(OC)c(OC)c3)C=CC3C(=O)N(C4CCCCC4)C(=O)C32)cc1 (stereo not given)", "composite z-score": -0.125}
{"compound": "N#Cc1ccc(NN2C(C(O)c3ccc(I)cc3)C=CC3C(=O)N(c4ccccc4)C(=O)C32)cc1 (stereo not given)", "composite z-score": -0.147}
{"compound": "CO[C@H]1COC(=O)CC=C[C@H](C)COC(=O)[C@@H](OCc2ccccc2)C=C[C@@H]1C", "composite z-score": 2.67}
{"compound": "COCCCNC(=O)[C@@]1(Sc2ccc(C)cc2)CC(=O)N(Cc2cc(C(F)(F)F)cc(C(F)(F)F)c2)[C@@H]1c1ccc(CO)cc1I", "composite z-score": -0.083}
{"compound": "CC(C)(C)OC(=O)CC[C@]1(C(=O)NCCN2CCOCC2)N=C(c2ccc(OCCCO)cc2)O[C@H]1c1ccccc1CN=[N+]=[N-]", "composite z-score": 0.474}
{"compound": "CC(c1ccccc1)C(O)C1C=CC2C(=O)N(C)C(=O)C2N1N(c1ccccc1)c1ccccc1 (stereo not given)", "composite z-score": 0.18}
{"compound": "CC(C)[C@H]1NC(=O)[C@@]23C(=O)N[C@@H](Cc4ccccc4)C2[C@H](C)[C@@]2(C)O[C@H]2C3/C=C/C/C=C\\CNC(=O)[C@H](C)NC1=O (stereo not given in full)", "composite z-score": -0.96}
{"compound": "C=CC[C@]1(C(=O)OC)N=C(c2ccc(OCCCO)cc2)O[C@H]1c1ccccc1CN=[N+]=[N-]", "composite z-score": 0.101}
{"compound": "COC(=O)Cn1c(C(=O)N2CCCC2)cc2c1C[C@H]1CN(C(=O)c3ccccc3)[C@@](Cc3ccc(OC)cc3)(C(=O)OC)[C@@H]21", "composite z-score": -0.0629}
{"compound": "COc1ccc([Si](C)(C)[C@H]2[C@H](CC(=O)N(CCO)Cc3ccccc3)O[C@@]3(C(=O)N(C)c4ccccc43)[C@@H]2C)cc1", "composite z-score": 0.0317}
{"compound": "C=C(COC)/C(=C/C[C@H](OC(C)=O)c1ccc(OCCO)cc1)c1cnc2ccccc2c1", "composite z-score": 0.654}

The reported numbers originate from PubChem BioAssay.
